Ref: ChEMBL document CHEMBL1201862

system: NCI-H226; test: NCI tumour cell line growth inhibition, 48 h
The source made the active and inactive calls. Cut-off read from the data, not from the text of the source: active = GI50 up to about 1.1 µM and inactive = higher.
assayReadout: GI50

q: Recorded GI50 for CCOC(=O)N1CCC(=O)C(CNC23CC4CC(CC(C4)C2)C3)C1 (stereo not given) with NCI-H226, please?
a: > 100 µM (inactive)

q: Thanks! And CCCC/C=C/C=C/C=C/CCCCCCCC(=O)OCC(COC(=O)CCCCCCC/C=C/C1C=CC(CCCC)C(C(=O)O)C1C(=O)O)OC(=O)CCCCCCC/C=C/C=C/C=C/CCCC.OCCNCO (stereo not given) ?
a: 17.5 µM (inactive)

###

Reported GI50 values are given for each entry in this list.
system: HCC 2998; assay: NCI tumour cell line growth inhibition, 48 h
Active and inactive are the calls of the source. Rule as the data show it: active = GI50 up to about 1.1 µM and inactive = higher.

- molecule: "CCC(=O)Nc1cccc(/N=C/c2ccc(OC(=O)/C=C\\c3ccccc3)cc2)c1"
  GI50: "32.3 µM (inactive)"
- molecule: "Brc1ccc2[nH]cc(-c3csc(-c4c[nH]c5ccccc45)n3)c2c1"
  GI50: "2.08 µM (inactive)"
- molecule: "Ic1ccc2c(c1)N(c1ccccc1)c1cc([N-]c3ccc4nc5ccc(I)cc5[n+](-c5ccccc5)c4c3)ccc1N2"
  GI50: "67.1 µM (inactive)"
- molecule: "CC1(C)C(=O)C(=Cc2ccco2)C1=O"
  GI50: "> 100 µM (inactive)"
- molecule: "CCOC(=O)/C(=C/c1ccc(Cl)cc1)N(CC)CC"
  GI50: "> 100 µM (inactive)"

q: Give the measured GI50 of CCCC(=O)N(C)/N=N/c1ccc(C(=O)OCC)cc1 .
a: > 100 µM (inactive)

q: Thanks! And Cn1c2ccccc2c2c(=O)[nH]c(=O)[nH]c21 ?
a: > 100 µM (inactive)

q: Thanks! And N#CC12CC=C(c3ccccc3)N=C1NC(c1ccccc1)=CC2 (stereo unspecified) ?
a: > 100 µM (inactive)

q: Thanks! And C[C@H](C1CC2(C)OC2(C)C(=O)O1)[C@H]1CC[C@H]2[C@@H]3[C@@H]4O[C@@H]4[C@@]4(O)CC=CC(=O)[C@]4(C)[C@H]3CC[C@]12C (stereo partly specified) ?
a: > 50 µM (inactive)

###

tested on: SNB-19; test: NCI tumour cell line growth inhibition, 48 h
The source made the active and inactive calls. Rule as the data show it: active = GI50 up to about 1.1 µM and inactive = higher.
assayReadout: GI50

Sample answers from the record:
- molecule: "CCOC(=O)CC[C@H](NC(=O)c1nc[nH]c1[N+](=O)[O-])C(=O)OCC"
  GI50: "> 100 µM (inactive)"
- molecule: "COc1cc2ccc(C(C)NCC#N)cc2cc1OC (configuration not stated)"
  GI50: "> 100 µM (inactive)"
- molecule: "O=C(c1ccccc1Cl)n1oc2ccccc2c1=O"
  GI50: "> 100 µM (inactive)"
- molecule: "c1cc(-c2cn[nH]c2)cc(-c2cn[nH]c2)c1"
  GI50: "61.1 µM (inactive)"
- molecule: "CCOC(=O)c1cn(-c2ccc(Cl)cc2)c(=O)n2c1nc1ccccc12"
  GI50: "> 100 µM (inactive)"
- molecule: "Clc1ccc(Nc2ncco2)cc1Cl"
  GI50: "> 10 µM (inactive)"
- molecule: "Cc1cc(N(CCC#N)S(C)(=O)=O)ccc1C=O"
  GI50: "> 100 µM (inactive)"
- molecule: "Cc1nc2ccccc2c(=O)n1-c1ccccc1I"
  GI50: "> 100 µM (inactive)"
- molecule: "N=C(N)NS(=O)(=O)c1ccc(NC(=O)c2ccc3nc4ccccc4c(O)c3c2)cc1"
  GI50: "> 100 µM (inactive)"
- molecule: "O=C(NNC(=S)Nc1ccccc1)c1cc(-c2ccccc2)nc2ccccc12"
  GI50: "22.8 µM (inactive)"

q: Give the measured GI50 of COC(=O)C(=O)C(C#N)c1ccc(CC#N)cc1 (configuration not stated) .
a: > 100 µM (inactive)

q: Thanks! And CCN(CC)C(=S)N/N=C/c1cc(OC)ccc1O ?
a: 8.91 µM (inactive)
